# system: N-LANA peptide binding to nucleosomes (histones H2A/H2B) (Gallus gallus, UniProt P02263+P0C1H3)
# assay method text: biochemical
Assignment: determine reported IC50 for the given molecules.

smiles str: COc1cccc2c1C(=O)c1c(O)c3c(c(O)c1C2=O)C[C@@](O)(C(=O)CO)C[C@@H]3O[C@H]1C[C@H](N)[C@H](O)[C@H](C)O1
result type: IC50
assay value: < 25 µM

Then there is this molecule:
QUERY: What measured IC50 goes with O=C1c2c(O)ccc(O)c2C(=O)c2c(NCCNCCO)ccc(NCCNCCO)c21 ?
RESULT: < 25 µM
